Data credit: paper PMC8154566

# assay.overview: Kinetic aqueous solubility by CLND
# Assay type: physicochemical
# experimental.setup: Table 5; kinetic, CLND; read-out: Aq. solubility
property.measured: solubility (µM)
Your answer is read as µM, so omit the unit and give the number.

IN: Fill in solubility for record `O=C(Nc1cccc(-c2cc3cc(-c4ccccc4)cnc3[nH]2)c1)N1CCCC1`
OUT: 3

IN: Fill in solubility for record `O=C(Nc1ccc(F)c(-c2cn3ncc(N4CCOCC4)cc3n2)c1)N1CCCC1`
OUT: 58

IN: Fill in solubility for record `O=C(Nc1ccc(F)c(-c2cn3nc(N4CCOCC4)cnc3n2)c1)N1CCCC1`
OUT: 126

IN: Fill in solubility for record `O=C(Nc1ccc(F)c(-c2cc3cc(N4CCOCC4)cnc3o2)c1)N1CCCC1`
OUT: 25

IN: Fill in solubility for record `O=C(Nc1ccc(F)c(-c2cc3nc(N4CCOCC4)cnc3[nH]2)c1)N1CCCC1`
OUT: 135

IN: Fill in solubility for record `O=C(Nc1ccc(F)c(-c2cc3nc(N4CCOCC4)cnc3o2)c1)N1CCCC1`
OUT: 70

IN: Fill in solubility for record `O=C(Nc1ccc(F)c(-c2cc3cc(N4CCOCC4)cnn3n2)c1)N1CCCC1`
OUT: 51

IN: Fill in solubility for record `O=C(Nc1ccc(F)c(-c2nc3ncc(N4CCOCC4)cn3n2)c1)N1CCCC1`
OUT: 354
